assay: Plasma protein binding, HT-Dialysis (rat); type: in vitro ADME; conditions: pH 7.4, dialysis 4 hours, read-out: percent unbound

[
  {
    "Molecule": "C[C@H](CC/C=C/C(=O)O)O[C@@H]1O[C@@H](C)[C@H](O)C[C@H]1O [ascr #7, reference compound]",
    "fraction unbound at 4 h": 0.946
  }
]

* * *

Each entry below carries its reported inhibition at 10 min, 10 µM.
Target: CYP2C9 (Homo sapiens)
Construct: from tissue
Sequence (P11712 whole entry): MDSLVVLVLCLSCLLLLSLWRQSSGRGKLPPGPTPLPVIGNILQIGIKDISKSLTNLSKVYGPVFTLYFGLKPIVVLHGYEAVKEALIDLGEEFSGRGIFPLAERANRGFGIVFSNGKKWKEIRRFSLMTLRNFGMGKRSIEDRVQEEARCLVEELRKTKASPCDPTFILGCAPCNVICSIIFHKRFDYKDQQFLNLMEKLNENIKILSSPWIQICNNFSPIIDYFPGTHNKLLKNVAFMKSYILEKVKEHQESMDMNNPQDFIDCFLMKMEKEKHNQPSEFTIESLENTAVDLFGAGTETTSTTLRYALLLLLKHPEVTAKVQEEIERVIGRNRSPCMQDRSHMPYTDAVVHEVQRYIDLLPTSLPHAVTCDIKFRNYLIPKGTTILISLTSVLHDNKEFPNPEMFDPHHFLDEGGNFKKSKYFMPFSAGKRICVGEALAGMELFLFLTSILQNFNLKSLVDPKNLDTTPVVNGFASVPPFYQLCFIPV
Assay: 5 in 1 CYP inhibition assay, CYP2C9
Type: in vitro ADME
Conditions: microsomes, probe diclofenac (4′-hydroxylation), test compound 10 μM, n=2, read-out: inhibition of cytochrome P450 isoform 2C9
Protocol: CYP450 dependent activities were determined using a marker substrate cocktail. For each reaction, enzyme activities in the presence and absence of test compound (10 μM) were measured in duplicate. A known inhibitor for each isoform, tested at a single concentration (3 μM, n=2), was included as positive control. […] Generation of metabolites from the substrate reactions was determined by LC-MS/MS.
Observation Type: inhibition at 10 min, 10 µM (%)

[
  {
    "Molecule": "C[C@H](CC/C=C/C(=O)OC(C)(C)C)O[C@@H]1O[C@@H](C)[C@H](O)C[C@H]1O",
    "Tested System": "CYP2C9 (Homo sapiens)",
    "Units Symbol": "%",
    "Result Number": 4.3
  },
  {
    "Molecule": "C[C@H](CC/C=C/C(=O)O)O[C@@H]1O[C@@H](C)[C@H](O)C[C@H]1O [ascr #7, reference compound]",
    "Tested System": "CYP2C9 (Homo sapiens)",
    "Units Symbol": "%",
    "Result Number": 0
  }
]

Data credit: patent US11845770B2
